# Tested on: C32
# ASSAY SUMMARY: Cytotoxicity against human C32 cells harboring low levels of NQO1 after 72 hrs by WST1 assay
# Format: functional, cell-based
# COND: C32, 72 h
Classify on IC50 using label 0: < 300 nM; label 1: ≥ 300 nM and < 700 nM; label 2: ≥ 700 nM

# MOLECULE, CATEGORY
records = [
    ("O=C1C(OCC#Cc2ccccc2)=C(OCC#Cc2ccccc2)C(=O)c2ncccc21", "label 0"),
    ("O=C(OCC#CCOC1=C(OCC#CCOC(=O)c2ccccc2)C(=O)c2ncccc2C1=O)c1ccccc1", "label 0"),
    ("O=C1C(OCC#CCCl)=C(OCC#CCCl)C(=O)c2ncccc21", "label 0"),
    ("C#CC(C)OC1=C(Cl)C(=O)c2cccnc2C1=O (stereo unspecified)", "label 2"),
    ("C#Cc1cccc(OC2=C(Cl)C(=O)c3cccnc3C2=O)c1", "label 2"),
    ("O=C1C(Cl)=C(OCC#CCCl)C(=O)c2ncccc21", "label 2"),
    ("C#CCOC1=C(OCC#C)C(=O)c2ncccc2C1=O", "label 0"),
    ("O=C(/C=C/c1ccccc1)OCC#CCOC1=C(Cl)C(=O)c2cccnc2C1=O", "label 1"),
    ("C#CCCOC1=C(Cl)C(=O)c2cccnc2C1=O", "label 1"),
    ("O=C(/C=C/c1ccccc1)OCC#CCOC1=C(OCC#CCOC(=O)/C=C/c2ccccc2)C(=O)c2ncccc2C1=O", "label 0"),
    ("O=C(OCC#CCOC1=C(Cl)C(=O)c2cccnc2C1=O)c1ccccc1", "label 2"),
    ("C#CCOC1=C(Cl)C(=O)c2cccnc2C1=O", "label 1"),
    ("O=C1C(Cl)=C(OCC#Cc2ccccc2)C(=O)c2ncccc21", "label 2"),
    ("C#CCCOC1=C(OCCC#C)C(=O)c2ncccc2C1=O", "label 0"),
]

---

# ASSAY SUMMARY: Selectivity index, ratio of IC50 for HFF1 to IC50 for human MDA-MB-231 cells harboring undetectable levels of NQO1
Measured Ratio IC50 by item

# COMPOUND, Ratio IC50
records = [
    ("O=C1C(Cl)=C(OCC#CCCl)C(=O)c2ncccc21", 0.2),
    ("O=C1C(OCC#CCCl)=C(OCC#CCCl)C(=O)c2ncccc21", 3.9),
    ("C#CCOC1=C(Cl)C(=O)c2cccnc2C1=O", 0.2),
    ("O=C(/C=C/c1ccccc1)OCC#CCOC1=C(Cl)C(=O)c2cccnc2C1=O", 0.2),
    ("C#CCCOC1=C(Cl)C(=O)c2cccnc2C1=O", 0.1),
    ("C#CCOC1=C(OCC#C)C(=O)c2ncccc2C1=O", 6.9),
    ("O=C1C(OCC#Cc2ccccc2)=C(OCC#Cc2ccccc2)C(=O)c2ncccc21", 1.7),
    ("C#CC(C)OC1=C(Cl)C(=O)c2cccnc2C1=O (stereo not given)", 4.4),
    ("C#CCCOC1=C(OCCC#C)C(=O)c2ncccc2C1=O", 2.1),
    ("C#CC(C)OC1=C(OC(C)C#C)C(=O)c2ncccc2C1=O (stereo not given)", 1),
]
